Test: Selectivity index, ratio of IC50 for African green monkey Vero cells to IC50 for Trypanosoma cruzi IRHOD/CO/2008/SN3 DTU 1 epimastigotes
Type: toxicity
Conditions: read-out: Ratio IC50
property label: selectivity ratio

item_smiles=COc1ccc(C(=O)CCN2CCN(Cc3cccc(F)c3)CC2)cc1OC recorded_value=0.5
item_smiles=Cc1ccc(C(=O)CCN2CCN(c3ccc(F)cc3)CC2)cc1 recorded_value=0.7
item_smiles=O=C(CCN1CCN(c2ccc(F)cc2)CC1)c1ccccc1 recorded_value=0.4
item_smiles=O=C(CCN1CCN(c2ccc(C(F)(F)F)cc2)CC1)c1ccc(C(F)(F)F)cc1 recorded_value=1.4
item_smiles=Cc1ccc(C(=O)CCN2CCN(c3ccc([N+](=O)[O-])cc3)CC2)cc1 recorded_value=12.9
item_smiles=COc1ccc(N2CCN(CCC(=O)c3ccc(F)cc3)CC2)cc1 recorded_value=1.4
item_smiles=COc1ccccc1N1CCN(CCC(=O)c2ccc(F)cc2)CC1 recorded_value=0.6
item_smiles=O=C(CCN1CCN(c2ccc(C(F)(F)F)cc2)CC1)c1ccc(Cl)c(F)c1 recorded_value=1.5
item_smiles=O=C(CCN1CCN(c2ccc(F)cc2)CC1)c1ccc(Br)cc1 recorded_value=1.8
item_smiles=COc1ccc(C(=O)CCN2CCN(c3ccc(Cl)cc3)CC2)cc1 recorded_value=47.8
item_smiles=O=C(CCN1CCN(c2ccc(C(F)(F)F)cc2)CC1)c1ccc(Br)cc1 recorded_value=2.8
item_smiles=COc1ccc(C(=O)CCN2CCN(c3ccc([N+](=O)[O-])cc3)CC2)cc1OC recorded_value=0.6
item_smiles=O=C(CCN1CCN(c2ccc(C(F)(F)F)cc2)CC1)c1ccccc1 recorded_value=1
item_smiles=O=C(CCN1CCN(c2ccc(C(F)(F)F)cc2)CC1)c1ccc(F)c(Cl)c1 recorded_value=1.7
item_smiles=O=C(CCN1CCN(c2ccc(Cl)cc2)CC1)c1ccc(OC(F)(F)F)cc1 recorded_value=2.8
item_smiles=COc1ccc(C(=O)CCN2CCN(c3ccc(Cl)cc3)CC2)cc1OC recorded_value=4.2
item_smiles=O=C(CCN1CCN(c2ccc(C(F)(F)F)cc2)CC1)c1ccc(F)c(F)c1 recorded_value=0.5
item_smiles=COc1ccc(C(=O)CCN2CCN(c3ccc(C(F)(F)F)cc3)CC2)cc1OC recorded_value=8.7
item_smiles=COc1ccc(C(=O)CCN2CCN(c3ccc(C(F)(F)F)cc3)CC2)cc1 recorded_value=4.2
item_smiles=O=C(CCN1CCN(c2ccc(C(F)(F)F)cc2)CC1)c1ccc(OC(F)(F)F)cc1 recorded_value=1.7
item_smiles=O=C(CCN1CCN(c2ccc(C(F)(F)F)cc2)CC1)c1ccc(F)c(Br)c1 recorded_value=3.2
item_smiles=O=C(CCN1CCN(c2ccc(F)cc2)CC1)c1ccc(F)c(Br)c1 recorded_value=8.3

Sourced from ChEMBL document CHEMBL4118256
